Listed below: EC50 values for each entry.
- System: follicle-stimulating hormone (FSH) receptor (Rattus norvegicus, UniProt P20395)
- Construct: endogenous in cells; host or cells: primary rat granulosa cells
- Sequence (P20395 18-692): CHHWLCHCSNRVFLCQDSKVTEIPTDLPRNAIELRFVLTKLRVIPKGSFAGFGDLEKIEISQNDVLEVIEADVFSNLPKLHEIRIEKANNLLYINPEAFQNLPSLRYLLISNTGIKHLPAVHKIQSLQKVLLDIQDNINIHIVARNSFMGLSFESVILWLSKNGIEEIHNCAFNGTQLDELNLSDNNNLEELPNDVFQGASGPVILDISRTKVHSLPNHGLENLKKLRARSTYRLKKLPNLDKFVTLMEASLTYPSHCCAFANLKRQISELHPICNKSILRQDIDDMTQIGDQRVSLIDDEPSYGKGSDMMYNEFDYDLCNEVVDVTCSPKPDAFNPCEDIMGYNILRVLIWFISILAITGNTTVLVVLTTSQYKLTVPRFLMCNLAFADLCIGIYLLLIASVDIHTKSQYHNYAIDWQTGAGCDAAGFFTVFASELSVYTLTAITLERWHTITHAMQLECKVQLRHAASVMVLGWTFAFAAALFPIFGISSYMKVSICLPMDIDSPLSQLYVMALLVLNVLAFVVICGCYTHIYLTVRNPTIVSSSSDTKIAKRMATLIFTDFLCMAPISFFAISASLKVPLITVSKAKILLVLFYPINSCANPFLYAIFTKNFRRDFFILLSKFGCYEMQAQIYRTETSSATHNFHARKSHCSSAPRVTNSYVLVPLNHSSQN
- Experiment: Rat granulosa EC50 FSH (Assay B)
- Assay type: cell-based
- Condition context: rat granulosa cells; read-out: Assay B: Rat granulosa EC50 FSH

>  <Molecular string>
[2H]C([2H])([2H])OC1(CN(C(=O)c2nn(-c3ccsc3)c3c2COc2cc(OC)c(-c4ccn(C)n4)cc2-3)C([2H])([2H])[2H])COC1

>  <System>
follicle-stimulating hormone (FSH) receptor (Rattus norvegicus, UniProt P20395)

>  <EC50>
100 to 1000 nM

$$$$
>  <Molecular string>
COc1cc2c(cc1-c1cnn(C(=O)OC(C)(C)C)c1)-c1c(c(C(=O)N(C)C(C)(C)C)nn1-c1ccsc1)CO2

>  <System>
follicle-stimulating hormone (FSH) receptor (Rattus norvegicus, UniProt P20395)

>  <EC50>
100 to 1000 nM

$$$$
>  <Molecular string>
[2H]C([2H])([2H])OCC1(N(C(=O)c2nn(-c3ccsc3)c3c2COc2cc(OC)c(S(=O)(=O)C(C)C)cc2-3)C([2H])([2H])[2H])COC1

>  <System>
follicle-stimulating hormone (FSH) receptor (Rattus norvegicus, UniProt P20395)

>  <EC50>
> 5000 nM

$$$$
>  <Molecular string>
COc1cc2c(cc1C1=CCOC1)-c1c(c(C(=O)N(C)C(C)(C)C)nn1-c1ccsc1)CO2

>  <System>
follicle-stimulating hormone (FSH) receptor (Rattus norvegicus, UniProt P20395)

>  <EC50>
100 to 1000 nM

$$$$
>  <Molecular string>
[2H]C([2H])([2H])N(CCN1CCOC1=O)C(=O)c1nn(-c2ccsc2)c2c1COc1cc(OC)c(CC(C)C)cc1-2

>  <System>
follicle-stimulating hormone (FSH) receptor (Rattus norvegicus, UniProt P20395)

>  <EC50>
1000 to 5000 nM

$$$$
>  <Molecular string>
COc1cc2c(cc1C1=CCCC1)-c1c(c(C(=O)N(C)C(C)(C)C)nn1-c1ccsc1)CO2

>  <System>
follicle-stimulating hormone (FSH) receptor (Rattus norvegicus, UniProt P20395)

>  <EC50>
100 to 1000 nM

$$$$

---

- System: follicle-stimulating hormone (FSH) receptor (Rattus norvegicus, UniProt P20395)
- Construct: endogenous in cells; host or cells: primary rat granulosa cells
- Experiment: Rat granulosa EC50 FSH (Assay B)
- Type: cell-based
- Condition context: rat granulosa cells; read-out: Assay B: Rat granulosa EC50 FSH
pEC50: −log10 of the molar value.
Parameter measured: pEC50

>  <Molecule>
COc1cc2c(cc1C(O)C(C)C)-c1c(c(C(=O)N3CCOCC3(C)C)nn1-c1ccsc1)CO2 (stereo not shown)

>  <Recorded measurement>
5.30 to 6.00

$$$$
>  <Molecule>
[2H]C([2H])([2H])OCCC1(N(C(=O)c2nn(-c3ccsc3)c3c2COc2cc(OC)c(-c4ccn(C)c4)cc2-3)C([2H])([2H])[2H])COC1

>  <Recorded measurement>
> 7.00

$$$$
>  <Molecule>
COc1cc2c(cc1C=C(C)C)-c1c(c(C(=O)NC(C)(C)CO)nn1-c1ccsc1)CO2

>  <Recorded measurement>
5.30 to 6.00

$$$$
>  <Molecule>
COc1cc2c(cc1-c1cc(C)nn1C)-c1c(c(C(=O)N3CCOCC3(C)C)nn1-c1ccsc1)CO2

>  <Recorded measurement>
< 5.30

$$$$
>  <Molecule>
COCOCCn1cc(-c2cc3c(cc2OC)OCc2c(C(=O)N4CCOCC4(C)C)nn(-c4ccsc4)c2-3)cn1

>  <Recorded measurement>
> 7.00

$$$$
>  <Molecule>
COc1cc2c(cc1-c1ccc(C)s1)-c1c(c(C(=O)N(C)C(C)(C)C)nn1-c1ccsc1)CO2

>  <Recorded measurement>
6.00 to 7.00

$$$$
>  <Molecule>
COc1cc2c(cc1-c1ccn(C)c1)-c1c(c(C(=O)NC3(C)COC3)nn1-c1ccsc1)CO2

>  <Recorded measurement>
6.00 to 7.00

$$$$

---

- System: FSHR (Homo sapiens, UniProt P23945)
- Construct: expressed in transfected cells; host or cells: CHO (Cho-FSHR-LUC-1-1-43)
- Sequence (P23945 18-695): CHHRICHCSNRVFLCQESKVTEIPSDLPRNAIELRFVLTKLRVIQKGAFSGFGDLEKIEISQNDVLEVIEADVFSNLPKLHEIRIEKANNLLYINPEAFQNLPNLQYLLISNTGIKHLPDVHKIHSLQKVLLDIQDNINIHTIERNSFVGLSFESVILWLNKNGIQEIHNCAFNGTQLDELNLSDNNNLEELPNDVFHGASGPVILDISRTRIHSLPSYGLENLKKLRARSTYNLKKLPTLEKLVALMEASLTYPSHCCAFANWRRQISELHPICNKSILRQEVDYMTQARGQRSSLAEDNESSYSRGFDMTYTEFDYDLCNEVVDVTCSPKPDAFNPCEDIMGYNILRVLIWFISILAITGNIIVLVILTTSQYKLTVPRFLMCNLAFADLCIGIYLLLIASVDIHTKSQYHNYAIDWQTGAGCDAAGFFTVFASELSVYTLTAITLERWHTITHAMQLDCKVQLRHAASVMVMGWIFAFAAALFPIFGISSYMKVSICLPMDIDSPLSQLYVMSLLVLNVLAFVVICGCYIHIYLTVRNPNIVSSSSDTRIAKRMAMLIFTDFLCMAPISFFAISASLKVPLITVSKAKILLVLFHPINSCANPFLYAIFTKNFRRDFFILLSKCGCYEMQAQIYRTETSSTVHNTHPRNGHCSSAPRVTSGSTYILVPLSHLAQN
- Experiment: EC50 of cyclic AMP production in CHO FSHR cells + EC20 FSH (Assay A)
- Format: cell-based
- Condition context: CHO FSHR cells + EC20 FSH, cAMP HTRF; read-out: Assay A: EC50 of cyclic AMP production
pEC50: −log10 of the molar value.

>  <Compound>
COc1cc2c(cc1C=C(C)C)-c1c(c(C(=O)NCCCNC(=O)C3CCC3)nn1-c1ccsc1)CO2

>  <pEC50>
5.30 to 6.00

$$$$
>  <Compound>
COc1cc2c(cc1C=C(C)C)-c1c(c(C(=O)N3CCC[C@@H](C(=O)N4CCC4)CC3)nn1-c1ccsc1)CO2

>  <pEC50>
6.00 to 7.00

$$$$
>  <Compound>
COc1cc2c(cc1-c1ccn(C)n1)-c1c(c(C(=O)N(C)CC3(C)COC3)nn1-c1ccsc1)CO2

>  <pEC50>
6.00 to 7.00

$$$$
>  <Compound>
[2H]C([2H])([2H])OC1CCN(C(=O)c2nn(-c3ccsc3)c3c2COc2cc(OC)c(C=C(C)C)cc2-3)C1 (stereo not drawn)

>  <pEC50>
6.00 to 7.00

$$$$
>  <Compound>
COc1cc2c(cc1C=C(C)C)-c1c(c(C(=O)N(C)C(C)(C)C)nn1-c1nccs1)CO2

>  <pEC50>
> 7.00

$$$$
>  <Compound>
COc1cc2c(cc1-c1ccnn1C)-c1c(c(C(=O)NC3(CO)COC3)nn1-c1ccsc1)CO2

>  <pEC50>
6.00 to 7.00

$$$$
>  <Compound>
COc1cc2c(cc1C=C(C)C)-c1c(c(C(=O)N3CCCC3(C)CO)nn1-c1ccsc1)CO2 (stereo not drawn)

>  <pEC50>
> 7.00

$$$$
>  <Compound>
CCOC(=O)C1CCN(C(=O)c2nn(-c3ccsc3)c3c2COc2cc(OC)c(C=C(C)C)cc2-3)CC1

>  <pEC50>
5.30 to 6.00

$$$$
>  <Compound>
COc1cc2c(cc1-c1ccn(C)n1)-c1c(c(C(=O)N3CCN(C(=O)OC(C)(C)C)CC34CC4)nn1-c1ccsc1)CO2

>  <pEC50>
5.30 to 6.00

$$$$
>  <Compound>
COc1cc2c(cc1-c1cccn1C)-c1c(c(C(=O)N3CCOCC3(C)C)nn1-c1ccsc1)CO2

>  <pEC50>
> 7.00

$$$$
>  <Compound>
COc1cc2c(cc1-c1c[nH]nc1C)-c1c(c(C(=O)NC3CC(O)C3)nn1-c1ccsc1)CO2 (stereo not drawn)

>  <pEC50>
< 5.30

$$$$
>  <Compound>
COc1cc2c(cc1-c1ccnn1C)-c1c(c(C(=O)NC3(C)COC3)nn1-c1ccsc1)CO2

>  <pEC50>
6.00 to 7.00

$$$$
>  <Compound>
[2H]C([2H])([2H])N(C(=O)c1nn(-c2ccsc2)c2c1COc1cc(OC)c(-c3ccnn3C)cc1-2)C1(C)COC1

>  <pEC50>
> 7.00

$$$$
>  <Compound>
[2H]C([2H])([2H])O[C@H]1CC[C@H](N(C(=O)c2nn(-c3ccsc3)c3c2COc2cc(OC)c(-c4ccn(C)c4)cc2-3)C([2H])([2H])[2H])C1

>  <pEC50>
5.30 to 6.00

$$$$
>  <Compound>
COc1cc2c(cc1S(=O)(=O)C1CC1)-c1c(c(C(=O)N3CCOCC3(C)C)nn1-c1ccsc1)CO2

>  <pEC50>
6.00 to 7.00

$$$$
